# targetOrSystem: Rac GTPase-activating protein 1 (Homo sapiens)
# methodDescription: blockers of MgcRacGAP-driven Rac1 GTP hydrolysis – biochemical, ADP Hunter fluorescence, primary and confirmatory, confirmation (AID 624330);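 also: fluorescence reports GDP produced by GAP-driven GTP hydrolysis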
# experimentalSetup: MgcRacGAP-stimulated Rac1 GTP hydrolysis, at 30 µM, stronger effect = higher value, GST-tagged Rac1 F28L mutant substrate
The campaign covered roughly 340,000 compounds. About 2,100 (0.62%) were called active. Only a sample is shown. Entries with a potency or affinity are not part of this list.
endpoint: inhibition (%)

| compound | endpoint | unitOfMeasurement | recordedResult |
| --- | --- | --- | --- |
| CCn1ccnc1CN(C)C(=O)C1CCC(=O)N(Cc2cccc(C(F)(F)F)c2)C1 (stereo unspecified) | inhibition | % | 4.11 |
| CC(=O)CCc1c(C)nc2ccc(C(=O)O)cc2c1Cl | inhibition | % | -3.43 |
| CN(C)c1ccc(/C=C(/C(=O)c2ccc(Cl)cc2Cl)n2cncn2)cc1 | inhibition | % | 3.83 |
| COc1ccccc1CNC(=O)CCNS(=O)(=O)/C=C/c1ccc(C)cc1 | inhibition | % | -0.75 |
| COc1ccc(/C=C(/C(=O)c2ccc(Cl)cc2Cl)n2cncn2)cc1 | inhibition | % | 11.7 |
| COc1ccc(Br)cc1/C=N/NC(=O)CN1CCN(Cc2ccccc2)CC1 | inhibition | % | 2.09 |
| C=CCn1c(SCC(=O)NCCOC)nnc1-c1cc2c(s1)CCC(CC)C2 (stereo unspecified) | inhibition | % | 7.45 |
| O=C(Cc1ccc(F)cc1)Nc1cccc2cccnc12 | inhibition | % | 5.65 |
| Cc1cccc(OCC(=O)N(Cc2ccc(F)cc2)C2CCS(=O)(=O)C2)c1C (stereo unspecified) | inhibition | % | 9.11 |
| CC1Cc2ccccc2N1C(=O)CSc1nc2ccccc2s1 (stereo unspecified) | inhibition | % | 11.8 |
| O=S(=O)(NCC(c1ccc2c(c1)OCO2)N1CCOCC1)c1ccc(Br)cc1 (stereo unspecified) | inhibition | % | 5.07 |
